- system under test: Tyrosine-protein kinase Lyn (Homo sapiens) (UniProt P07948)
- Sequence (P07948 2-512 limits assumed): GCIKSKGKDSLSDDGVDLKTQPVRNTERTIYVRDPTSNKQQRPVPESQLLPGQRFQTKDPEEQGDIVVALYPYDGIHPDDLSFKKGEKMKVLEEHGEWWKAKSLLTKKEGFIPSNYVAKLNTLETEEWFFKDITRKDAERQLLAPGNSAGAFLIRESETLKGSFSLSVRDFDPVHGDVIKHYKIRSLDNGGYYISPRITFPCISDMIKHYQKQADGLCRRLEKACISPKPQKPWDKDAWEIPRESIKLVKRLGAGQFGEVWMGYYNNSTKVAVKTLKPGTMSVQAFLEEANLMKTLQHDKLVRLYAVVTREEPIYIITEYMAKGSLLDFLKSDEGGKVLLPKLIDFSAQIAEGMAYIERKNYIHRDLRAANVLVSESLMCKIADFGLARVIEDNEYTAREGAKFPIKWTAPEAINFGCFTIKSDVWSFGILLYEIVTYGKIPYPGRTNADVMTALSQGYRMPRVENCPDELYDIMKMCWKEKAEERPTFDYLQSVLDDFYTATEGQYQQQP
- assay name: Binding affinity to Lyn assessed as increase of fluorescence after 60 mins relative to control
Starred links: 1 amine or outer side, 2 acyl side, 3 side chain; linkers in the order of their positions; H or OH if unused. Non-standard residues stand in square brackets, D forms with d. Residues, ends and D or L forms follow the SMILES beside them. X4 = O=C([C@H](Cc1cn(-c2cc3ccc(O)cc3oc2=O)nn1)N[*:1])[*:2]; X3 = O=C([C@H](Cc1cn(-c2cccc3ccccc23)nn1)N[*:1])[*:2]

| molecule | fold change (FC) |
| --- | --- |
| CC[C@H](C)[C@H](NC(=O)[C@H](CCC(=O)O)NC(=O)[C@H](CCC(=O)O)NC(=O)[C@H](CCC(=O)O)NC(=O)[C@H](C)N)C(=O)N[C@@H](Cc1ccc(O)cc1)C(=O)NCC(=O)N[C@@H](CCC(=O)O)C(=O)N[C@@H](Cc1cn(Cc2cc(=O)oc3cc(N)ccc23)nn1)C(=O)N[C@@H](CCC(=O)O)C(=O)N[C@@H](C)C(=O)N[C@@H](CCCCN)C(=O)N[C@@H](CCCCN)C(=O)N[C@@H](CCCCN)C(=O)N[C@@H](CCCCN)C(N)=O | 1.3 |
| CC[C@H](C)[C@H](NC(=O)[C@H](CCC(=O)O)NC(=O)[C@H](CCC(=O)O)NC(=O)[C@H](CCC(=O)O)NC(=O)[C@H](C)N)C(=O)N[C@@H](Cc1ccc(O)cc1)C(=O)NCC(=O)N[C@@H](CCC(=O)O)C(=O)N[C@@H](Cc1cn(-c2cc3ccc(O)cc3oc2=O)nn1)C(=O)N[C@@H](CCC(=O)O)C(=O)N[C@@H](C)C(=O)N[C@@H](CCCCN)C(=O)N[C@@H](CCCCN)C(=O)N[C@@H](CCCCN)C(=O)N[C@@H](CCCCN)C(N)=O (H-AEEEIYGE[X4]EAKKKK-NH2) | 1.1 |
| CC[C@H](C)[C@H](NC(=O)[C@H](CCC(=O)O)NC(=O)[C@H](CCC(=O)O)NC(=O)[C@H](CCC(=O)O)NC(=O)[C@H](C)N)C(=O)N[C@@H](Cc1ccc(O)cc1)C(=O)NCC(=O)N[C@@H](CCC(=O)O)C(=O)N[C@@H](Cc1cn(-c2cccc3ccccc23)nn1)C(=O)N[C@@H](CCC(=O)O)C(=O)N[C@@H](C)C(=O)N[C@@H](CCCCN)C(=O)N[C@@H](CCCCN)C(=O)N[C@@H](CCCCN)C(=O)N[C@@H](CCCCN)C(N)=O (H-AEEEIYGE[X3]EAKKKK-NH2) | 0 |
